# TARGET_OR_TEST_SYSTEM: Human CB1R (Cannabinoid receptor 1) (Homo sapiens)
# Sequence (P21554 whole entry): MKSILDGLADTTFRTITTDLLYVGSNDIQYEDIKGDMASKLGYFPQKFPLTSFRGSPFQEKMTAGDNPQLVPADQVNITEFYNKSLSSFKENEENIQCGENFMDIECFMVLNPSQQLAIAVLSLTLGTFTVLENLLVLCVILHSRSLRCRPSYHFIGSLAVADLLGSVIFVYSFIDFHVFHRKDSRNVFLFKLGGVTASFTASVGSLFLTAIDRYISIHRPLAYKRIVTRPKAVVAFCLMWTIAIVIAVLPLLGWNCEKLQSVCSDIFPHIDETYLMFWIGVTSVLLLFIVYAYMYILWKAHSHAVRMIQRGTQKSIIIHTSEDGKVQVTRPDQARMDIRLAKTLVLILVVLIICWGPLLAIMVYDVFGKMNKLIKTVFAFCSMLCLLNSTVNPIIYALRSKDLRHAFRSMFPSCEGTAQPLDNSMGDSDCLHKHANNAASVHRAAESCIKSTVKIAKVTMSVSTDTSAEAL
# PROCEDURE_SUMMARY: CB-1 in vitro cAMP (HTRF) assay
# Type: cell-based
# MEASUREMENT_CONTEXT: HEK cells, cAMP HTRF, 250 nM forskolin; mean where tested more than once; read-out: CB1 HEK_cAMP EC50
# Text: CB1 and CB2 receptors are Gi-coupled GPCR. Activation of CB1 and CB2 receptors results in a decrease in cAMP production. An inverse agonist of the CB1 or CB2 receptor results in the opposite effect, an increase of cAMP production. The principle of this assay is based on HTRF® technology (Homogeneous Time-Resolved Fluorescence). […] The tracer binding is quantified by a Mab anti-cAMP labeled with Eu3+TBP-NHS Cryptate (supplied as part of the assay kit). […]
EC50 overview
Numbers only; they are read as nM.

Past entries and their recorded results:
| COMPOUND | RESULT_UNIT | EC50 |
| --- | --- | --- |
| Cc1ccc(C(c2ccc(C)cc2)c2ccc3nc(C4CC4)n(C4CCN(Cc5cccc(C(=O)O)c5)CC4)c3c2)cc1 [Example 96] | nM | 27.3 |
| O=C(O)c1cccc(CN2CCC(n3c(C4CC4)nc4ccc(C(c5ccc(Cl)cc5)c5ccc(Cl)cc5)cc43)CC2)n1 [Example 125] | nM | 17.7 |

Give EC50 (Human CB1R (Cannabinoid receptor 1) (Homo sapiens)) of the following compound: CCOC(=O)N1CCC(n2c(C(C)(C)C)nc3ccc(C(c4ccc(Cl)cc4)c4nccs4)cc32)CC1 (stereo not shown) [Example 408] 3150
